B1: ALDH8A1 (parent)
chain: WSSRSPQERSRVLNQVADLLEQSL

- Variants of: B1
- testSummary: protein stability index of a GFP-peptide fusion (GPS, HEK-293T) (PSI 1-6); higher = more stable;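 further: lentivirally expressed fusions sorted by FACS into six bins by GFP to DsRed ratio, PSI derived from sequencing read proportions per bin multiplied by bin number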
- conditionDescription: c terminus: a fixed tail appended
Note: every record was labeled by where its protein stability index sits among range A = under 2, range B = from 2 up to 3, range C = 3 and over

Task: Category of R9M :
Result: range B

Task: Bin? S5V
Result: range B

These measurements were taken from the supplement of paper PMC10567573.
